Test system: HT29 colon
Assay: NCI tumour cell line growth inhibition, 48 h
ENDPOINT NAME: TGI

## Input Would you mind telling me what TGI value was observed for "C/C(=C/CNc1ncnc2c1ncn2CCC#N)CO" ?
## Output > 100 µM

## Input Could you do the same for "CCNc1nc(N2CC(=O)Nc3cc(OC)ccc32)c2ccccc2n1" , please?
## Output 0.01 µM

## Input Could you do the same for "CSC(=N)N1N=C2c3ccccc3CC[C@@H]2[C@@H]1c1ccccc1" , please?
## Output 23.6 µM

###

System: HOP-62 NSCLC
Assay: NCI tumour cell line growth inhibition, 48 h
ENDPOINT NAME: TGI

## Input Would you mind telling me what TGI value was observed for "CCCCc1ccc(N2C(=O)c3cccnc3S2(=O)=O)cc1" ?
## Output > 100 µM

## Input Could you do the same for "C/C(=C\COP(=O)(O)OP(=O)(O)O)CC/C=C(\C)CNc1ccc([N+](=O)[O-])cc1" , please?
## Output > 100 µM

## Input Could you do the same for CC(C)=CCC/C(C)=C/CC/C(=C/COP(=O)(OCc1ccc([N+](=O)[O-])o1)N(C)CCCCCl)C(C)(C)C (configuration not stated) , please?
## Output 3.86 µM

## Input Could you do the same for "CN1CCN(Cc2ccc(NC(=O)c3cncc(C#Cc4c(N)ncc5cc(F)ccc45)c3)cc2C(F)(F)F)CC1" , please?
## Output 12 µM

## Input Could you do the same for "COc1ccc(/C=C/[N+](=O)[O-])cc1" , please?
## Output > 100 µM

## Input Could you do the same for "Nc1c(Cl)c([N+](=O)[O-])cc2c1OCCCCO2" , please?
## Output > 100 µM

## Input Could you do the same for "CCNc1nc(N2CC(=O)Nc3cc(OC)ccc32)c2ccccc2n1" , please?
## Output 14.2 µM

## Input Could you do the same for CN=S(=O)(C[C@]1(O)CC2OC1C1OC(C)(C)OC21)c1ccccc1 (some centres not stated) , please?
## Output > 100 µM

## Input Could you do the same for "O=S1(=O)OCCCOS(=O)(=O)C1Br" , please?
## Output > 100 µM

## Input Could you do the same for O=C(CC1(O)C(=O)Nc2c(Cl)cc(Cl)cc21)c1ccc2ccccc2c1 (configuration not stated) , please?
## Output 20.8 µM

## Input Could you do the same for "N#CC1=C(N2CCOCC2)CCC1" , please?
## Output > 100 µM

## Input Could you do the same for "O=C1OC2(c3ccc(O)cc3Oc3cc(O)ccc32)c2c1c(-c1ccccc1)c(-c1ccccc1)c(-c1ccccc1)c2-c1ccccc1" , please?
## Output 67.8 µM

## Input Could you do the same for CN(C)CCN1C(=O)c2ccccc2C1(O)c1ccc(Cl)cc1 (configuration not stated) , please?
## Output > 100 µM

## Input Could you do the same for [N-]=[N+]=CC(=O)OCC(N)C(=O)O (configuration not stated) , please?
## Output > 100 µM

## Input Could you do the same for "CCOC(=O)c1c(-c2ccccc2)[nH]c2ccc(Cl)cc2c1=O" , please?
## Output > 100 µM

## Input Could you do the same for O=C(O)CCC1CCC(c2cc(F)ccc2F)(S(=O)(=O)c2ccc(Cl)cc2)CC1 (configuration not stated) , please?
## Output > 100 µM

## Input Could you do the same for CC(C)(CCCCC(C)(C)NCC1COc2ccccc2O1)NCC1COc2ccccc2O1 (configuration not stated) , please?
## Output > 10 µM

## Input Could you do the same for "COC(=O)C#Cc1ccc([N+](=O)[O-])cc1" , please?
## Output 6.87 µM

## Input Could you do the same for CC1OC(O)CC(OC(=O)c2ccccc2)C1OC(=O)c1ccccc1 (configuration not stated) , please?
## Output > 100 µM

## Input Could you do the same for "Clc1ccc(CO/N=C(\Cn2ccnc2)c2ccc(Cl)cc2Cl)c(Cl)c1" , please?
## Output 2.9 µM

## Input Could you do the same for "COc1cc(C(=O)n2nc(N3CCN(C)CC3)c3cc(N)ccc32)cc(OC)c1OC" , please?
## Output > 100 µM

## Input Could you do the same for "CSC(=N)N1N=C2c3ccccc3CC[C@@H]2[C@@H]1c1ccccc1" , please?
## Output 32.8 µM

Reference for the values: PubChem BioAssay (NCI)
